tgt: T1, human CD48 (on primary human peripheral blood mononuclear cells) (human, UniProt P09326 27-220)
T1 sequence: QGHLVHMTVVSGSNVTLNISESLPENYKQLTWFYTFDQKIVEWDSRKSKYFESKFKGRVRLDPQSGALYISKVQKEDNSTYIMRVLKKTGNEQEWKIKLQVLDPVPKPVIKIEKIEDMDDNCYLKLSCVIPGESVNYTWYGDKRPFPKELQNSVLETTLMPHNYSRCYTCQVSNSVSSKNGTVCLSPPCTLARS
assayProcedure: cell-based or functional assay
Measured Inhibition of IFN-gamma Release IC50; Donor 11 values are reported for all entries that follow.
Answer format: numeric, Molar implied, no suffix.

Record excerpt, results attached:
Kindly note the recorded Inhibition of IFN-gamma Release IC50; Donor 11 for H4H1771P (antibody, human IgG4, V domains shown, Human IgG4 Fc (H4H)) VH: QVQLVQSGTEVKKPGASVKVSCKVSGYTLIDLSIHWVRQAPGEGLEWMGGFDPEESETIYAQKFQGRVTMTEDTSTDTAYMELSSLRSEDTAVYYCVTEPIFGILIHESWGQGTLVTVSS VL: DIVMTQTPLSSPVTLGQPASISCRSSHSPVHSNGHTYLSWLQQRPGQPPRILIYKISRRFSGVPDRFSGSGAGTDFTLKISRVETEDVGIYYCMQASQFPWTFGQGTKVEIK , which is 1.5e-11

Item: H4H1772P (antibody, human IgG4, V domains shown, Human IgG4 Fc (H4H)) VH: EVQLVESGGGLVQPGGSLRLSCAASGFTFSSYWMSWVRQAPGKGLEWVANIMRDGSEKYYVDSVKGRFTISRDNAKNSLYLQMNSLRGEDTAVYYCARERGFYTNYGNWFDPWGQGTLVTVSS VL: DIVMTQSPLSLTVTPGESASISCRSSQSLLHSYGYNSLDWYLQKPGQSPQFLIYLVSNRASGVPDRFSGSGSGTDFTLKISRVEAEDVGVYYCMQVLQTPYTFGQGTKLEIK | Inhibition of IFN-gamma Release IC50; Donor 11: 8.6e-11

The recorded Inhibition of IFN-gamma Release IC50; Donor 11 for H4H1769Pa (antibody, human IgG4, V domains shown) VH: QVQLVQSGAEVKKPGASVKVSCKTSGYTFAGYGITWVRQAPGRGLEWMGWVSAYNGDTDYAQSLQGRVTMTTDTSTSTAYMELRSLRSDDTAMYYCARDRYSSSSGYFDYWGQGTLVTVSS VL: DIQMTQSPSSVSASVGDRVTITCRASQGISSWLAWHQQKPGKAPKVLIYAASSLHSGVPSRFSGSGSGTEFTLTISSLQPEDFATYYCQQANTFPYTFGQGTKLEIK is 1.9e-11

Now for a further binder.
response.value for H4H1763N (antibody, human IgG4, V domains shown, Human IgG4 Fc (H4H) form of 1763N) VH: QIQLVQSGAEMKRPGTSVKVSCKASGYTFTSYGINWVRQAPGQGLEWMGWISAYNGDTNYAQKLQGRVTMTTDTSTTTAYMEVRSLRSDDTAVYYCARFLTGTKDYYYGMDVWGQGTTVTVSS VL: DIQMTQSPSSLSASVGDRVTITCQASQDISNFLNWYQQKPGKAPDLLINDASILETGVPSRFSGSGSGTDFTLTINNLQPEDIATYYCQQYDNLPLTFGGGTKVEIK (field: Inhibition of IFN-gamma Release IC50; Donor 11) = 3.4e-12
